target.system: T-type calcium channel (Homo sapiens, UniProt O43497)
Sequence (O43497 whole entry): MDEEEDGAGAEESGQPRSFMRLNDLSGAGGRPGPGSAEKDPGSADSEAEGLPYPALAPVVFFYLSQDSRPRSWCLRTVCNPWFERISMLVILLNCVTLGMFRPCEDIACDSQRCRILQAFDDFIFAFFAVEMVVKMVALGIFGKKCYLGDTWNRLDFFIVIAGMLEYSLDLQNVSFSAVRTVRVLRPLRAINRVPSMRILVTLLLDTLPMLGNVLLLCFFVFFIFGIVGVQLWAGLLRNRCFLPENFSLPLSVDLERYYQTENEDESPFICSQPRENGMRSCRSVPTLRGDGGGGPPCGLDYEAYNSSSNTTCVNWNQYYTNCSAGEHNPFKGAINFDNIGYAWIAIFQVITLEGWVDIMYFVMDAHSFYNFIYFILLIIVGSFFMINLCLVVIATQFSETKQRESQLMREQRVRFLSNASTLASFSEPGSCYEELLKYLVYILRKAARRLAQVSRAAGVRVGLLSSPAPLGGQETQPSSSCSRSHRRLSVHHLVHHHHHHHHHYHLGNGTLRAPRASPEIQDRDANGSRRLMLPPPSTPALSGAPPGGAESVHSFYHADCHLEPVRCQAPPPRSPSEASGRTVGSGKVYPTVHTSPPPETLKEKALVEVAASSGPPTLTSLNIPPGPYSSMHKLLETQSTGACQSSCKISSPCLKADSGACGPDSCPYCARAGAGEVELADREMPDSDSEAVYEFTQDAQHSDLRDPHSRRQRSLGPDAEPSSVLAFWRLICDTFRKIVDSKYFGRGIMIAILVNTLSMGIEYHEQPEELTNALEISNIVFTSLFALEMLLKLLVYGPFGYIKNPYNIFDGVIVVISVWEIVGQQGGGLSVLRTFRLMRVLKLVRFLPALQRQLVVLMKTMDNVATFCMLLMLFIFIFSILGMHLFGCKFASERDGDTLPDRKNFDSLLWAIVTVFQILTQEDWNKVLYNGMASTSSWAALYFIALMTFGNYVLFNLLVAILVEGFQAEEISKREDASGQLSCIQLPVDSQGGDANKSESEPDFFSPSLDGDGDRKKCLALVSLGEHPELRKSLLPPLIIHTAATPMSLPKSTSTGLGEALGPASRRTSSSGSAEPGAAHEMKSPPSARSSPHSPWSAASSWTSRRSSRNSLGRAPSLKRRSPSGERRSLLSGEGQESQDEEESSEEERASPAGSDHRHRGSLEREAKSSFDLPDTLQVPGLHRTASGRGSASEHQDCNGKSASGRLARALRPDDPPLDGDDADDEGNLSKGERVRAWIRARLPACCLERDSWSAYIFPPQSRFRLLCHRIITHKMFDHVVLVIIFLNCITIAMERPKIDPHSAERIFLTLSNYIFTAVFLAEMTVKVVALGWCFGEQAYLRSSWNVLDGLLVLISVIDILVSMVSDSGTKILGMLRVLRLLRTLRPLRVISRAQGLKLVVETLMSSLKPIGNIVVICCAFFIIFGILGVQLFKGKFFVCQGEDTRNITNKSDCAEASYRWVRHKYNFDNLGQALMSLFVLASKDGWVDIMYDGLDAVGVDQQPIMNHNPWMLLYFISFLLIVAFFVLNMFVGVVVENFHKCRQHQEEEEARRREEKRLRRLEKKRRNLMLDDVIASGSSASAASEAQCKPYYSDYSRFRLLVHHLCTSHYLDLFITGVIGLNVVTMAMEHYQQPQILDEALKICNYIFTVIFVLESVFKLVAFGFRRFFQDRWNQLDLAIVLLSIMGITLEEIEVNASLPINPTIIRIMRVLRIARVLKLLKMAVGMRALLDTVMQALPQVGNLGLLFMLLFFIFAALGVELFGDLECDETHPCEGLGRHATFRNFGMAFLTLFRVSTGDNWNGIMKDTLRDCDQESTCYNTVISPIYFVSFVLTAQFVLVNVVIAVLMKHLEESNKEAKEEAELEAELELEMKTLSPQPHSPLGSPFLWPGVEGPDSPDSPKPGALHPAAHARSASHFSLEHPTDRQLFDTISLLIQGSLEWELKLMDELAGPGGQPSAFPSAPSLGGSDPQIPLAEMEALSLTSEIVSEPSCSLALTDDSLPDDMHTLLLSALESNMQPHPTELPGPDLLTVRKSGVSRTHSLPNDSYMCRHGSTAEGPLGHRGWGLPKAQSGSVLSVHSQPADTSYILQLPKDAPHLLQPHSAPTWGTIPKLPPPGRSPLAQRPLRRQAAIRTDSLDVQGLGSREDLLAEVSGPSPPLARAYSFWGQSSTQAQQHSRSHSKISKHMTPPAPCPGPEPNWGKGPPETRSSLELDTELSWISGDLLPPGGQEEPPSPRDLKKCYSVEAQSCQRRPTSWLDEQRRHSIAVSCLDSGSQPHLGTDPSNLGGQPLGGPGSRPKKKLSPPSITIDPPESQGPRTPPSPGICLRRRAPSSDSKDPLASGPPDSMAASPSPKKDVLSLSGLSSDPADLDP
assay.remarks: T-type channel blocking, FLIPR data (Table 6)
condition.description: CAv3.1
property.measured: IC50 (µM)

[
  {
    "smiles.structure": "CC(C)([C@H]1C[C@@H](NS(=O)(=O)c2ccc(OC(F)(F)F)cc2)C1)S(=O)(=O)c1cc(F)cc(C(F)(F)F)c1",
    "target.system": "T-type calcium channel (Homo sapiens, UniProt O43497)",
    "measurement.units": "µM",
    "IC50": 5.48
  }
]

A. CC(C)([C@H]1C[C@@H](NS(=O)(=O)c2ccc(C(F)(F)F)cc2Cl)C1)S(=O)(=O)c1cccc(C(F)(F)F)c1
B. CC(C)S(=O)(=O)c1cc(C(F)(F)F)cnc1C(=O)N[C@H]1C[C@H](C(C)(C)S(=O)(=O)c2cccc(OC(F)(F)F)c2)C1
q: Compare A and B by numeric IC50 and name the larger one. The response must carry the label of the picked entry.
a: B

a. CC(C)([C@H]1C[C@@H](CNC(=O)c2ncc(C(F)(F)F)cn2)C1)S(=O)(=O)c1cccc(C(F)(F)F)c1
b. CC(C)(C[C@H]1C[C@H](NC(=O)c2ccc(C(F)(F)F)cn2)C1)S(=O)(=O)c1cccc(C(F)(F)F)c1
q: For the pair a and b , which entry has the numerically smaller recorded IC50? The response must carry the label of the picked entry.
a: b
(b: 2.76 µM, a: 4.65 µM)

* * *

target.system: T-type calcium channel (Homo sapiens, UniProt O95180)
Sequence (O95180 whole entry): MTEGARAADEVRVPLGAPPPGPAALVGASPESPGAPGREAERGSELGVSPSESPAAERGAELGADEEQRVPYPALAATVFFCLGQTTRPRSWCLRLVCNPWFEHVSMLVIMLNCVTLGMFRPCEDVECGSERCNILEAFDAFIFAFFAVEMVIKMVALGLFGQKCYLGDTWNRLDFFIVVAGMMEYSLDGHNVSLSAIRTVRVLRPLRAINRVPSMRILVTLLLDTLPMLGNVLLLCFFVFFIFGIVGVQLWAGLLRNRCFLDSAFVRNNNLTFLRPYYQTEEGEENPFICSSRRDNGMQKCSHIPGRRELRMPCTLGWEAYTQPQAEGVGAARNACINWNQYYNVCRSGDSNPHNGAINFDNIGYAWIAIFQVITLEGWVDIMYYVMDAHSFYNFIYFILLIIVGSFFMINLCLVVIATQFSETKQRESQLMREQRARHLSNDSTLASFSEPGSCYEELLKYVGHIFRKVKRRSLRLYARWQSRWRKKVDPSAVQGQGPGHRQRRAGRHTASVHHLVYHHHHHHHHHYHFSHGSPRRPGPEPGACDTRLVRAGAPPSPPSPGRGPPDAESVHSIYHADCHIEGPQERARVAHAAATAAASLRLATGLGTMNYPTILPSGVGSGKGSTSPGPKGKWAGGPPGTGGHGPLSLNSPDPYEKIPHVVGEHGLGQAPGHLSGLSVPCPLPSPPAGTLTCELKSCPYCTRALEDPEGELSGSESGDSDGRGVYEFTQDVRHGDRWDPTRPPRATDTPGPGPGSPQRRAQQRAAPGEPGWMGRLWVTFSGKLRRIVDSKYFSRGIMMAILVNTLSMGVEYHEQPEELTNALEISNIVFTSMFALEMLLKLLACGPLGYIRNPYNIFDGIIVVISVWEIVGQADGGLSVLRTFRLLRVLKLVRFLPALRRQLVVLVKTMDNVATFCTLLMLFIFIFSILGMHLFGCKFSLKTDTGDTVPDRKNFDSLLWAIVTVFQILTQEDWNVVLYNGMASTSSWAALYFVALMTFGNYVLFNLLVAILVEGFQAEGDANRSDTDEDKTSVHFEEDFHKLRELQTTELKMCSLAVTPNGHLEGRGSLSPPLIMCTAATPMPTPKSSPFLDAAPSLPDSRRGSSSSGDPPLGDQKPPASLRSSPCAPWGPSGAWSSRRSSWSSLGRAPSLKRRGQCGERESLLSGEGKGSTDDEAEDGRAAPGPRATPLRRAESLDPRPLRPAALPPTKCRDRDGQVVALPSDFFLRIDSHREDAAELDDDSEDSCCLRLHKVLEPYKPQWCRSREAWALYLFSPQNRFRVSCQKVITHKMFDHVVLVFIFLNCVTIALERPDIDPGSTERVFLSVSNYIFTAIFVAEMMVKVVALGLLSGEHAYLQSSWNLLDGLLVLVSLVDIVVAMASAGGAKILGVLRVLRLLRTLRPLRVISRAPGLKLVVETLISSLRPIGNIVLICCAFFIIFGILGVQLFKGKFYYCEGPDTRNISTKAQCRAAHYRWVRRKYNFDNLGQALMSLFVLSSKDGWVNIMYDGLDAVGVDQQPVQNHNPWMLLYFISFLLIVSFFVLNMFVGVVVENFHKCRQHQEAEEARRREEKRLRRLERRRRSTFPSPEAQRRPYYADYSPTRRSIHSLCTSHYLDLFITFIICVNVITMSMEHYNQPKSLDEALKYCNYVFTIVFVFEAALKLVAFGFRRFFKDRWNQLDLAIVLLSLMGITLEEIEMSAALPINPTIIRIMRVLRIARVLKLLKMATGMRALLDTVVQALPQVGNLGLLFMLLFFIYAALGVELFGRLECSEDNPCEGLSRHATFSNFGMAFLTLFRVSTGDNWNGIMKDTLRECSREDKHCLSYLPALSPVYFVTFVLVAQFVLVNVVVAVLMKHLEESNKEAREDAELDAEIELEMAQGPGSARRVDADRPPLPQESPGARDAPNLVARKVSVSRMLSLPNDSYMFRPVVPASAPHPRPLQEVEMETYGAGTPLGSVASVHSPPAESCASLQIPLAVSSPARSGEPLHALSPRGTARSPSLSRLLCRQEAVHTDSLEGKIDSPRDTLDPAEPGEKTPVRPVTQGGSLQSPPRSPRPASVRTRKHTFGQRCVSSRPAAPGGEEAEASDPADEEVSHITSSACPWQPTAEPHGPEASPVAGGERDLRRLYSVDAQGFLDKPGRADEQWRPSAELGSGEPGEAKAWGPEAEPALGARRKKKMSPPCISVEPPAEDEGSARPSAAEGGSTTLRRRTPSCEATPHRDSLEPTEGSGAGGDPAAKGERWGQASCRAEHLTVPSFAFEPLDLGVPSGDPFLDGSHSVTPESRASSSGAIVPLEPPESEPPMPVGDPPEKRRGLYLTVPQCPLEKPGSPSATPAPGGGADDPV
assay.remarks: T-type channel blocking, FLIPR data (Table 6)
Assay type: cell-based
condition.description: CAv3.2, closed state, read-out: CAv3.2 IC50 Closed
pIC50: −log10 of the molar value.
property.measured: pIC50

[
  {
    "smiles.structure": "O=C(NC[C@H]1C[C@H](S(=O)(=O)c2cccc(OC(F)(F)F)c2)C1)c1ccc(Cl)cn1",
    "target.system": "T-type calcium channel (Homo sapiens, UniProt O95180)",
    "data.value": 5.10
  }
]

I. CS(=O)(=O)c1cc(Cl)ccc1C(=O)NC[C@H]1C[C@H](S(=O)(=O)c2cccc(OC(F)(F)F)c2)C1
II. CC(C)(C[C@H]1C[C@@H](NC(=O)c2ccc(OCC(F)(F)F)nc2)C1)S(=O)(=O)c1cccc(C(F)(F)F)c1
q: For the pair I and II , which entry has the numerically smaller recorded pIC50? The response must carry the label of the picked entry.
a: I

* * *

target.system: Human Cav 2.2 channels (Homo sapiens, UniProt Q00975)
assay.remarks: Fluorescent assay for CaV2.2 channels using potassium depolarization (VIPR/FLIPR)
Assay type: cell-based
condition.description: FLIPR data; ratio closed/inactivated IC50
property.measured: CAv2.2 IC50 Ratio closed/inact.

[
  {
    "compound": "CC(C)S(=O)(=O)c1cc(C(F)(F)F)cnc1C(=O)N[C@H]1C[C@H](C(C)(C)S(=O)(=O)c2cc(F)cc(C(F)(F)F)c2)C1",
    "data.value": 62.5
  },
  {
    "compound": "CC(C)([C@H]1C[C@@H](NS(=O)(=O)c2ccc(C(F)(F)F)cc2Cl)C1)S(=O)(=O)c1cc(F)cc(C(F)(F)F)c1",
    "data.value": 7
  }
]

1. O=C(NC[C@H]1C[C@H](S(=O)(=O)c2cccc(OC(F)(F)F)c2)C1)c1ccc(OCC(F)(F)F)nc1 [Compound 699]
2. CC(C)([C@H]1C[C@H](NC(=O)c2ncc(C(F)(F)F)cn2)C1)S(=O)(=O)c1cccc(C(F)(F)F)c1
3. N[C@H]1CCCC[C@@H]1C(=O)NC[C@H]1C[C@H](S(=O)(=O)c2cc(F)cc(C(F)(F)F)c2)C1
q: Rank the 3 compounds: largest CAv2.2 IC50 Ratio closed/inact. first, smallest last. Note for the reader: the ranking is given by listing the labels in the order requested.
a: 2, 1, 3

* * *

target.system: CAv1.2 (Homo sapiens)
assay.remarks: FLIPR data, CAv1.2 channel blocking (Table 6)
Format: cell-based
condition.description: inactivated state, read-out: CAv1.2 IC50 Inact.
property.measured: IC50 (µM)
The figure you give is taken to be in µM; do not add the unit.

Here are 5 compounds together with their reported answers.
[
  {
    "compound": "O=S(=O)(c1cccc(OC(F)(F)F)c1)[C@H]1C[C@@H](CNc2ccnc(C(F)(F)F)n2)C1 [Compound 650]",
    "IC50 / µM": 3.51
  },
  {
    "compound": "CC(C)([C@H]1C[C@H](NS(=O)(=O)c2ccc(F)c(C(F)(F)F)c2)C1)S(=O)(=O)c1cccc(C(F)(F)F)c1 [Compound 667]",
    "IC50 / µM": 2.56
  },
  {
    "compound": "CC(C)([C@H]1C[C@@H](CNC(=O)c2ccc(OCC(F)(F)F)nc2)C1)S(=O)(=O)c1cccc(C(F)(F)F)c1 [Compound 686]",
    "IC50 / µM": 1.1
  },
  {
    "compound": "O=C(NC[C@H]1C[C@H](S(=O)(=O)c2cc(F)cc(C(F)(F)F)c2)C1)c1ccc(Cl)cn1 [Compound 702]",
    "IC50 / µM": 7.28
  },
  {
    "compound": "CC(C)([C@H]1C[C@H](NC(=O)c2ccc(OCC(F)(F)F)nc2)C1)S(=O)(=O)c1cccc(C(F)(F)F)c1 [Compound 674]",
    "IC50 / µM": 1.74
  }
]

q: API: value(readout= IC50, system= CAv1.2 (Homo sapiens), query= CC(C)([C@H]1C[C@@H](NC(=O)c2ccc(OCC(F)(F)F)nc2)C1)S(=O)(=O)c1cccc(C(F)(F)F)c1 [Compound 582] )
a: 2.06

q: API: value(readout= IC50, system= CAv1.2 (Homo sapiens), query= CC(C)(C[C@H]1C[C@H](NC(=O)c2ccc(Cl)cn2)C1)S(=O)(=O)c1cccc(C(F)(F)F)c1 [Compound 720] )
a: 2.45

q: API: value(readout= IC50, system= CAv1.2 (Homo sapiens), query= CC(C)([C@H]1C[C@@H](NC(=O)c2ccc(Cl)cn2)C1)S(=O)(=O)c1cccc(C(F)(F)F)c1 [Compound 578] )
a: 8.38

* * *

target.system: Human Cav 2.2 channels (Homo sapiens, UniProt Q00975)
assay.remarks: Fluorescent assay for CaV2.2 channels using potassium depolarization (VIPR/FLIPR)
Type: cell-based
condition.description: FLIPR data; inactivated state; read-out: CAv2.2 IC50 Inact.
pIC50: −log10 of the molar value.
property.measured: pIC50

Here are 3 molecules together with their reported answers.
[
  {
    "smiles.structure": "CC(C)([C@H]1C[C@@H](NS(=O)(=O)c2ccc(F)c(C(F)(F)F)c2)C1)S(=O)(=O)c1cccc(C(F)(F)F)c1",
    "pIC50": 5.91
  },
  {
    "smiles.structure": "CC(C)([C@H]1C[C@@H](NC(=O)CC2(N)CCCCC2)C1)S(=O)(=O)c1cccc(C(F)(F)F)c1",
    "pIC50": 5.92
  },
  {
    "smiles.structure": "CC(C)([C@H]1C[C@@H](CNc2ccc(Cl)c(F)c2)C1)S(=O)(=O)c1cccc(C(F)(F)F)c1",
    "pIC50": 5.14
  }
]

A. CNC1(CC(=O)N[C@H]2C[C@H](C(C)(C)S(=O)(=O)c3cccc(OC(F)(F)F)c3)C2)CCCCC1
B. CC(C)S(=O)(=O)c1cc(C(F)(F)F)cnc1C(=O)N[C@H]1C[C@@H](C(C)(C)S(=O)(=O)c2cccc(OC(F)(F)F)c2)C1
C. CC(C)(C[C@H]1C[C@@H](NC(=O)c2ccc(C(F)(F)F)nc2)C1)S(=O)(=O)c1cccc(C(F)(F)F)c1
q: Rank the 3 molecules: largest pIC50 first, smallest last. Note for the reader: the ranking is given by listing the labels in the order requested.
a: C, B, A

* * *

target.system: Human Cav 2.2 channels (Homo sapiens, UniProt Q00975)
assay.remarks: Fluorescent assay for CaV2.2 channels using potassium depolarization (VIPR/FLIPR)
Type: cell-based
condition.description: FLIPR data; closed state; read-out: CAv2.2 IC50 Closed
property.measured: IC50 (µM)

[
  {
    "smiles.structure": "CC(C)S(=O)(=O)c1cc(C(F)(F)F)cnc1C(=O)N[C@H]1C[C@@H](CC(C)(C)S(=O)(=O)c2cccc(C(F)(F)F)c2)C1",
    "measurement.units": "µM",
    "data.value": 6.9
  },
  {
    "smiles.structure": "CC(C)([C@H]1C[C@@H](NS(=O)(=O)c2ccc(C(F)(F)F)cc2Cl)C1)S(=O)(=O)c1cc(F)cc(C(F)(F)F)c1",
    "measurement.units": "µM",
    "data.value": 4.79
  },
  {
    "smiles.structure": "CC(C)S(=O)(=O)c1cc(C(F)(F)F)cnc1C(=O)NC[C@H]1C[C@@H](C(C)(C)S(=O)(=O)c2cccc(C(F)(F)F)c2)C1",
    "measurement.units": "µM",
    "data.value": 9.89
  },
  {
    "smiles.structure": "Cc1nc(C(F)(F)F)ccc1NC(=O)[C@H]1C[C@H](C(C)(C)S(=O)(=O)c2cccc(C(F)(F)F)c2)C1",
    "measurement.units": "µM",
    "data.value": 4.17
  },
  {
    "smiles.structure": "N[C@H]1CCCC[C@@H]1C(=O)NC[C@H]1C[C@H](S(=O)(=O)c2cccc(Cl)c2)C1",
    "measurement.units": "µM",
    "data.value": 10
  }
]

P. CC(C)S(=O)(=O)c1cc(C(F)(F)F)cnc1C(=O)NC[C@H]1C[C@H](S(=O)(=O)c2cccc(Cl)c2)C1
Q. CC(C)([C@H]1C[C@H](CNc2cc(C(F)(F)F)n[nH]2)C1)S(=O)(=O)c1cccc(C(F)(F)F)c1
R. CC(C)([C@H]1C[C@H](NC(=O)c2cncc(C(F)(F)F)c2)C1)S(=O)(=O)c1cccc(C(F)(F)F)c1
S. CC(C)([C@H]1C[C@H](NC(=O)c2ccc(F)c(Cl)c2)C1)S(=O)(=O)c1cc(F)cc(C(F)(F)F)c1
q: Arrange the 4 compounds by rising IC50, starting with the smallest. Note for the reader: the ranking is given by listing the labels in the order requested.
a: S, Q, R, P
(S: 1.43 µM, Q: 3.7 µM, R: 5.47 µM, P: 10 µM)

A. CC(C)([C@H]1C[C@@H](NC(=O)CC2(N)CCCCC2)C1)S(=O)(=O)c1cccc(C(F)(F)F)c1
B. CC(C)([C@H]1C[C@H](NS(=O)(=O)c2ccc(Cl)c(F)c2)C1)S(=O)(=O)c1cc(F)cc(C(F)(F)F)c1
q: For the pair A and B , which entry has the numerically smaller recorded IC50? The response must carry the label of the picked entry.
a: B
(B: 2.97 µM, A: 8.87 µM)
